B1: OAS1 (parent)
chain: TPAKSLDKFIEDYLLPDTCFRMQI

- Variants of: B1
- experiment_description: protein stability index of a GFP-peptide fusion (GPS, HEK-293T) (PSI 1-6); higher = more stable;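 also: lentivirally expressed fusions sorted by FACS into six bins by GFP to DsRed ratio, PSI derived from sequencing read proportions per bin multiplied by bin number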
- protocol_conditions: c terminus: a fixed tail appended
Field: class. Source value: protein stability index. Ranges: L (below 2), M (2 to below 3), H (3 or more)

{"mutation_string": "P2D", "category": "L"}
{"mutation_string": "D17Q", "category": "L"}
{"mutation_string": "M22L", "category": "M"}
{"mutation_string": "L6C", "category": "M"}
{"mutation_string": "I24D", "category": "M"}
{"mutation_string": "P2M", "category": "H"}
{"mutation_string": "Y13G", "category": "L"}
{"mutation_string": "F9N", "category": "H"}
{"mutation_string": "T1V", "category": "L"}
{"mutation_string": "D17Y", "category": "M"}
{"mutation_string": "P2N", "category": "H"}
{"mutation_string": "P16A", "category": "M"}
{"mutation_string": "T18L", "category": "M"}
{"mutation_string": "R21A", "category": "H"}
{"mutation_string": "F9C", "category": "M"}
{"mutation_string": "I24N", "category": "L"}
{"mutation_string": "T1Q", "category": "M"}
